# credit: paper PMC9482650

# experimental_system: MAGI2_3, Q86UL8
# Sequence (Q86UL8 600-682): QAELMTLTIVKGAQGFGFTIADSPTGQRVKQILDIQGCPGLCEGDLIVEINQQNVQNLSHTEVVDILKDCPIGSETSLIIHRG
# experiment: holdup assay
# Parameters: key: below the threshold = too weak to quantify, mostly under pKd 3.1 to 4
# experimental_setup: plain residues with an end cap or a label only (N-terminal biotin on a linker: ahx)
property_name: pKd

binder | pKd
LSDPSVSTVV [GRIN1, Q05586;Q05586-2] | below the threshold
ESLLLGPSNF [SHROOM4, Q9ULL8] | below the threshold
GYDWGPATDL [TJP3, O95049] | below the threshold
RAVEEEESRF [PSCDBP, O60759] | below the threshold
HNAFLSVTTV [PDZRN4, Q6ZMN7] | 3.49

Tell me the measured pKd of PSASCAVTAA [PDLIM4, P50479;P50479-2] , please.
below the threshold
